- tested target: Neuronal acetylcholine receptor subunit alpha-7 (Homo sapiens)
- test: Agonist activity at human recombinant alpha7 nAChR expressed in rat GH3 cells by calcium influx assay
pEC50: −log10 of the molar value.
The threshold is inclusive: pEC50 of exactly 6 counts as MET; values below receive NOT MET.

Check if pEC50 >= 6 (inclusive). Item: CN1C(=O)[C@@H](CN2CCCCC2)C[C@H]1c1ccc(C2CCCC2)cc1 (relative stereo) MET

* * *

- tested target: Muscarinic acetylcholine receptor M1 (Homo sapiens, UniProt P11229)
- Sequence (P11229 whole entry): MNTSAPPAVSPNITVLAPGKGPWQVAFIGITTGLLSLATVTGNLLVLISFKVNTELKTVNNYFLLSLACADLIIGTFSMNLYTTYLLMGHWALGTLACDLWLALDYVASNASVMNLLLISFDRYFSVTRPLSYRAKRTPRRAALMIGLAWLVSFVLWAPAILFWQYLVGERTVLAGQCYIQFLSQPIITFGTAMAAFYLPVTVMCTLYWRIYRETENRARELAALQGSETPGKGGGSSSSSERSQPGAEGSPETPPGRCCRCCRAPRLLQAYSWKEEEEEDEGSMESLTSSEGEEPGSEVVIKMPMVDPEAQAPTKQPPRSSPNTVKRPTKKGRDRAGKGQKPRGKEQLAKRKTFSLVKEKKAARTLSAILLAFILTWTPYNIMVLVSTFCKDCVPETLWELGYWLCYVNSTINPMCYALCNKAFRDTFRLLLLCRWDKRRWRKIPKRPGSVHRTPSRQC
- test: Inhibition of human recombinant muscarinic M1 receptor
pIC50: −log10 of the molar value.
assay metric: pIC50

Fill blank: measured pIC50 of the molecule C[C@H](OC(=O)N[C@@H]1CN2CCC1CC2)c1ccccc1F is ____. < 5.00

* * *

- tested target: Voltage-gated inwardly rectifying potassium channel KCNH2 (Homo sapiens)
- Sequence (Q12809 whole entry): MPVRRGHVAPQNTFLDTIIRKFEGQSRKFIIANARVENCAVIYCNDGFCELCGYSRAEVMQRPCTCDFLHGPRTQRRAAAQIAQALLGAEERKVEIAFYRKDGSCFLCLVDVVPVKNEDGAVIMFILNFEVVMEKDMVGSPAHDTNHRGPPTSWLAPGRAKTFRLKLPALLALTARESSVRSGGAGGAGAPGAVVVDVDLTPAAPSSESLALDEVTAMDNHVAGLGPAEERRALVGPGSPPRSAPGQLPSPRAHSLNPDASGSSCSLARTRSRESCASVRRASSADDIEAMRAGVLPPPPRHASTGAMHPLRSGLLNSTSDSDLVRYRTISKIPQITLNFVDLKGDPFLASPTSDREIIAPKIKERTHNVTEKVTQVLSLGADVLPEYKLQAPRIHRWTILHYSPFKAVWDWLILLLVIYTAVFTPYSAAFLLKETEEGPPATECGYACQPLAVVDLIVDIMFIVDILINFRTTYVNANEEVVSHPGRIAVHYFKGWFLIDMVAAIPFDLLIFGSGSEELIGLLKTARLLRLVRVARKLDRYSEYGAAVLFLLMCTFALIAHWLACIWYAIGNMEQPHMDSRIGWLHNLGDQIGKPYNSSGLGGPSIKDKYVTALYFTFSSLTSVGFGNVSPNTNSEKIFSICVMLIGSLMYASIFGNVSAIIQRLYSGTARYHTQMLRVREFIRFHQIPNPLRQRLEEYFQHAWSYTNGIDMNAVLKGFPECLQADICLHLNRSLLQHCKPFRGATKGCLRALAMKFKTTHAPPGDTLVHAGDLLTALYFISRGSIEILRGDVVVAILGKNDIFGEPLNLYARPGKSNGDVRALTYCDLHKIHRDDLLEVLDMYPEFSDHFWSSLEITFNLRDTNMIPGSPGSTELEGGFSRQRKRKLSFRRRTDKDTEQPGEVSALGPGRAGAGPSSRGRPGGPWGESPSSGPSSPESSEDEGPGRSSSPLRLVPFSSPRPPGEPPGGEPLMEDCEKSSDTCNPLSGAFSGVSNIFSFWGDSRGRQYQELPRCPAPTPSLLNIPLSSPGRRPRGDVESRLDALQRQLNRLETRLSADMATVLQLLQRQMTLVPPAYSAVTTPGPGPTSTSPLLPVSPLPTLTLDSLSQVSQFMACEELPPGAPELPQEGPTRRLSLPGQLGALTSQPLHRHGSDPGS
- test: Inhibition of human ERG by patch-clamp technique
assay metric: IC50
Hi, when you answer, please include the unit after the number. Thanks!

What is its IC50 for Voltage-gated inwardly rectifying potassium channel KCNH2 (Homo sapiens)? Entry: CN1C(=O)[C@@H](CN2CCCCC2)C[C@H]1C#Cc1ccccc1 (relative stereo) 6.85 µM

* * *

- tested target: Muscarinic acetylcholine receptor M4 (Homo sapiens, UniProt P08173)
- Sequence (P08173 whole entry): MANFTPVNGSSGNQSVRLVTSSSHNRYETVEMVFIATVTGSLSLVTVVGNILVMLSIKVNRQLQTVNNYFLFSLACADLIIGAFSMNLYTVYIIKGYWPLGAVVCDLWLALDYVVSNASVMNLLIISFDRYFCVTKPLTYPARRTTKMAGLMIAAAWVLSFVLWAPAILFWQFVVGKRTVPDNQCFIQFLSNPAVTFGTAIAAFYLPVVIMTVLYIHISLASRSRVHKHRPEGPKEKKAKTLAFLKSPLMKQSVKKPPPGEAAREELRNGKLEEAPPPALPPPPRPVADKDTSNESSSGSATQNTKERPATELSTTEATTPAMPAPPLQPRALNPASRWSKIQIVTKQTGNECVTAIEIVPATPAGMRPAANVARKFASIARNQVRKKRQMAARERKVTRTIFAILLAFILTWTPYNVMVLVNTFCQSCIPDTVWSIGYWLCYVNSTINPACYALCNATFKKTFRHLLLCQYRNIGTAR
- test: Inhibition of human recombinant muscarinic M4 receptor
assay metric: IC50

Fill blank: measured IC50 of the molecule C[C@H](OC(=O)N[C@@H]1CN2CCC1CC2)c1ccccc1F is ____. > 10 µM

* * *

Below, each of the molecules is paired with its reported pEC50 value.
- tested target: Neuronal acetylcholine receptor subunit alpha-7 (Homo sapiens, UniProt P36544)
- Sequence (P36544 whole entry): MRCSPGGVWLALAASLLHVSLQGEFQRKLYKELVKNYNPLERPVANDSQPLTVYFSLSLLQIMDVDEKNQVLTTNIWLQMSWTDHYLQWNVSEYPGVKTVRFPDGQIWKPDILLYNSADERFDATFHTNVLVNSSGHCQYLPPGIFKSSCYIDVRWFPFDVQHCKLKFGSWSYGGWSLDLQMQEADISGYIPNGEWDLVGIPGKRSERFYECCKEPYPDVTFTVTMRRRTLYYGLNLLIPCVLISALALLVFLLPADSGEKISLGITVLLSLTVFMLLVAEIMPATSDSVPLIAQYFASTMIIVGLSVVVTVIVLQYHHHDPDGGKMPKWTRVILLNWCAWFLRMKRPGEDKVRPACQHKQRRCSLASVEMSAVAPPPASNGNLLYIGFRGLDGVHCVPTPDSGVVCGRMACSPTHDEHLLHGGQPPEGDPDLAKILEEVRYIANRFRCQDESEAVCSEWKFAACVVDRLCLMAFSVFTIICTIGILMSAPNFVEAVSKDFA
- test: Agonist activity at human recombinant alpha7 nAChR expressed in rat GH3 cells by calcium influx assay
Note on pEC50: it is the negative log10 of concentration, concentration in mol/L.

Guide cases for pEC50, answers given:
molecule	assay metric	measurement
CN1C(=O)[C@@H](CN2CCCCC2)C[C@H]1c1ccc(-c2ccccc2Cl)cc1 (relative stereo)	pEC50	6.90
Clc1ccc([C@@H]2C[C@H]3CC[C@@H]2N3)cn1 [(+)-EPIBATIDINE]	pEC50	7.40
Cc1ccccc1C#C[C@@H]1C[C@H](CN2CCCCC2)C(=O)N1C (relative stereo)	pEC50	7.80

Fill blank: measured pEC50 of the molecule CN1C(=O)[C@@H](CN2CCCCC2)C[C@H]1c1cnc(-c2ccccc2Cl)s1 (relative stereo) is ____. 7.60

Then this molecule: CN1C(=O)[C@@H](CN2CCCCC2)C[C@H]1c1ccc(Br)cc1 (relative stereo) 6.20

* * *

- tested target: Neuronal acetylcholine receptor; alpha3/beta4 (Homo sapiens, UniProt P30926+P32297)
- Sequence (P30926 whole entry): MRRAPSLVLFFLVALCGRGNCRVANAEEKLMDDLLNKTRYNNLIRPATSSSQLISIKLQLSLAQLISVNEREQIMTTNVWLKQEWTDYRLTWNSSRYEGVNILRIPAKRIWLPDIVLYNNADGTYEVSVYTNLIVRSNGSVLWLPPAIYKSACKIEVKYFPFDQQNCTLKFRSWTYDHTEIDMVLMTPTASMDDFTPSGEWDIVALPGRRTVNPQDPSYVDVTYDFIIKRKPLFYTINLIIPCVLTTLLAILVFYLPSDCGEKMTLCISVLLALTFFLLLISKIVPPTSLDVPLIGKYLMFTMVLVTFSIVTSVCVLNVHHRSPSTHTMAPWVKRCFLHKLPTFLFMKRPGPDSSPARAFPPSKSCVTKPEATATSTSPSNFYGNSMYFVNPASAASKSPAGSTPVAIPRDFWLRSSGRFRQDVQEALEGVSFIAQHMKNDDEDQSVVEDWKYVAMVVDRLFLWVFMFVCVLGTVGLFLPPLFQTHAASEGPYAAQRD
- Sequence (P32297 whole entry): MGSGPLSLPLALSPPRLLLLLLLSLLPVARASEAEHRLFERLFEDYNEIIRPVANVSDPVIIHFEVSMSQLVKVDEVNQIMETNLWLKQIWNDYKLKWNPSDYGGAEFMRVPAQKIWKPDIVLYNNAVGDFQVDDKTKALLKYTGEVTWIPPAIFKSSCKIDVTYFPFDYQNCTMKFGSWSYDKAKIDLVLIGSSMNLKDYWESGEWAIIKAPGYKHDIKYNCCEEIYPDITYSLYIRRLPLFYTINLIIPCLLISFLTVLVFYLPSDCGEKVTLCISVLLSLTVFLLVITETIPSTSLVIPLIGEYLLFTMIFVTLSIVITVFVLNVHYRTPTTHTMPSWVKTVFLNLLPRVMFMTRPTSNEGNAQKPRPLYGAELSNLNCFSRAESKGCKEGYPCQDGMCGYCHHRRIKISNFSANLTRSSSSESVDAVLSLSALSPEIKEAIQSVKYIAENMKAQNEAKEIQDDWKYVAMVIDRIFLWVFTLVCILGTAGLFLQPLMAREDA
- test: Antagonist activity at human alpha3beta4 nAChR expressed in HEK293 cells by calcium influx assay
Below, each of the compounds is paired with its reported pIC50 value.
Note on pIC50: it is the negative log10 of concentration, concentration in mol/L.

Guide cases for pIC50, answers given:
compound	pIC50
CN1C(=O)[C@@H](CN2CCCCC2)C[C@H]1C#Cc1ccccc1 (relative stereo)	5.90
CN1C(=O)[C@@H](CN2CCCCC2)C[C@H]1C#Cc1ccc2c(c1)CCO2 (relative stereo)	6.00
C[C@H](OC(=O)N[C@@H]1CN2CCC1CC2)c1ccccc1F	4.70
CN1C(=O)[C@@H](CN2CCCCC2)C[C@H]1C#Cc1ccc2c(ccn2C)c1 (relative stereo)	6.00

Fill blank: measured pIC50 of the compound CN1C(=O)[C@@H](CN2CCCCC2)C[C@H]1C#Cc1ccc2occc2c1 (relative stereo) is ____. 6.10
